- measured-on: glutathione-S-transferase (GST) tagged LXRbeta LBD (ligand binding domain) (Homo sapiens, UniProt P55055)
- Construct: purchased Invitrogen pv4658.pps
- Sequence (P55055 222-460 limits assumed): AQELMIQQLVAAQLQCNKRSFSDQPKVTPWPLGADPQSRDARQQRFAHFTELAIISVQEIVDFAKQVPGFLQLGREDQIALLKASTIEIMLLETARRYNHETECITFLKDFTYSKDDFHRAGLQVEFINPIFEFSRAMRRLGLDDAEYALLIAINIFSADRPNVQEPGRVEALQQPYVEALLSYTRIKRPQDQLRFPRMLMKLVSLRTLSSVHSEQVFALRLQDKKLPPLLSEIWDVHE
- assay-procedure: LanthaScreen TR-FRET Liver X Receptor Coactivator Assay, LXR beta
- Format: biochemical
- condition-context: efficacy (Emax) in relation to reference dual agonist T0901317; read-out: LXR beta actiivty at max dose (%)
property-label: Emax (%)

[[record]]
compound = "CN(C)C(=O)c1ccc(CCCCCC2CCN(C(=O)C(O)(c3ccccc3)C(F)(F)F)CC2)cc1Cl (single isomer, unassigned)"
property_label = "Emax"
scale_unit = "%"
reported = 79

[[record]]
compound = "CN(C)C(=O)c1ccc(N(C)CCC[C@@H]2CC23CCN(C(=O)[C@](O)(c2ccccc2)C(F)(F)F)CC3)cc1Cl (single isomer, unassigned)"
property_label = "Emax"
scale_unit = "%"
reported = 103

[[record]]
compound = "CC(CCCC1CCN(C(=O)[C@](O)(c2cccc(Cl)c2)C(F)(F)F)CC1)Nc1ccc(C(=O)N(C)C)c(Cl)c1 (single isomer, unassigned)"
property_label = "Emax"
scale_unit = "%"
reported = 84

[[record]]
compound = "CNC(=O)c1ccc(NCCCCC2CCN(C(=O)C(O)(c3cccc(OC)c3)C(F)(F)F)CC2)cc1Cl (single isomer, unassigned)"
property_label = "Emax"
scale_unit = "%"
reported = 68

[[record]]
compound = "COc1cccc([C@@](O)(C(=O)N2CCC3(CC2)C[C@H]3CCCc2ccc(C(=O)N(C)C)c(Cl)c2)C(F)(F)F)c1 (single isomer, unassigned)"
property_label = "Emax"
scale_unit = "%"
reported = 51

[[record]]
compound = "CNC(=O)c1ccc(NCCCCC2CCN(C(=O)C(O)(c3cccc(OC(C)C)c3)C(F)(F)F)CC2)cc1Cl (single isomer, unassigned)"
property_label = "Emax"
scale_unit = "%"
reported = 68

[[record]]
compound = "CN(C)C(=O)c1ccc(NC[C@H]2C[C@@H]2C2CCN(C(=O)[C@](O)(c3ccccc3)C(F)(F)F)CC2)cc1Cl (single isomer, unassigned)"
property_label = "Emax"
scale_unit = "%"
reported = 75

[[record]]
compound = "CN(C)C(=O)c1ccc(NCCC2CC3(CCN(C(=O)C(O)(c4ccccc4)C(F)(F)F)CC3)C2)cc1Cl (single isomer, unassigned)"
property_label = "Emax"
scale_unit = "%"
reported = 57

[[record]]
compound = "COc1cccc([C@@](O)(C(=O)N2CCC3(CC2)C[C@H]3CCCc2ccc(C(=O)NC3CC3)c(Cl)c2)C(F)(F)F)c1 (single isomer, unassigned)"
property_label = "Emax"
scale_unit = "%"
reported = 43

[[record]]
compound = "COc1cccc([C@@](O)(C(=O)N2CCC(CCCC(C)Nc3ccc(C(=O)N(C)C)c(Cl)c3)CC2)C(F)(F)F)c1 (single isomer, unassigned)"
property_label = "Emax"
scale_unit = "%"
reported = 17

[[record]]
compound = "CNC(=O)c1ccc(NCCCCC2CCN(C(=O)C(O)(c3cccc(Cl)c3)C(F)(F)F)CC2)cc1Cl (single isomer, unassigned)"
property_label = "Emax"
scale_unit = "%"
reported = 72


The values you see were collected from patent US10894775B2.
